assay: yeast NALP1 reporter signal suppression – S. cerevisiae, luminescence, single concentration, NALP1 inhibitor project, confirmation (AID 488841);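 note: plate controls were DMSO in galactose medium for no effect and cells in plain SD medium for full effect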; details: S. cerevisiae NALP1/ASC/Caspase-1 reporter, beta-gal luminescence; at 10 µM
About 380 (27%) of roughly 1,400 compounds were called active.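 Rule for the calls: active = mean inhibition above 50% across duplicate retests at 10 µM; inactive = the rest.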 The list shows a part of the results.
Outcome codes: yes = active, no = inactive

                         chemical_structure  class_name
0        Cc1ccc(-n2c(Cl)c(Cl)nc(Cl)c2=O)cc1         yes
1      COc1ccc2cnn(-c3ccc(C)cc3)c(=O)c2c1OC          no
2     O=C1C=CC(=O)N1CCNc1ncc(C(F)(F)F)cc1Cl          no
3  CN(C)c1ccc(NC(=O)COC(=O)c2cc(Cl)ccc2[N+](=O)[O-])cc1         yes
4  NS(=O)(=O)c1ccc(NC(=O)COC(=O)c2cn(-c3ccccc3)nc2-c2ccc(F)cc2)cc1          no
5            O=C(Nc1ccc(Cl)c(Cl)c1)c1ccncc1          no

----------
assay: yeast NALP1 reporter signal suppression – S. cerevisiae, luminescence, single concentration, NALP1 inhibitor project, confirmation (AID 488841);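 note: plate controls were DMSO in galactose medium for no effect and cells in plain SD medium for full effect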; conditions: S. cerevisiae NALP1/ASC/Caspase-1 reporter, beta-gal luminescence; at 10 µM
Among all 1,400 compounds or so, about 380 (27%) were called active.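 Rule for the calls: active = mean inhibition above 50% across duplicate retests at 10 µM; inactive = the rest.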 The list shows a part of the results.
Labels: label 1 (active), label 0 (inactive)

In [3]: df
Out[3]:
                                   compound  class_name
0  CC1CCCC(C)N1C(=O)CN1CCN(c2nc(-c3ccc(F)cc3)cs2)CC1 (stereo unspecified)     label 0
1          Cc1nc(NC(=O)/C=C/c2ccccc2)n[nH]1     label 0
2     COc1cc(/C=N/n2cnnc2)ccc1OCc1ccc(C)cc1     label 1
3                   O=C(O)CCCCc1nc2ccccc2s1     label 0
4  O=C(OC1CCOC1=O)c1cc(-c2ccc(Br)cc2)nc2ccccc12 (stereo unspecified)     label 0
5             O=C(OCCN1CCCCC1)c1cc2ccccc2o1     label 0

----------
assay: yeast NALP1 reporter signal suppression – S. cerevisiae, luminescence, single concentration, NALP1 inhibitor project, confirmation (AID 488841);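 note: plate controls were DMSO in galactose medium for no effect and cells in plain SD medium for full effect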; conditions: S. cerevisiae NALP1/ASC/Caspase-1 reporter, beta-gal luminescence; at 10 µM; stronger effect = higher value
In all, about 1,400 compounds went through this assay and about 380 (27%) were called active. Some of the results follow.
Range-based classes on measured inhibition: 1: < 30%; 2: ≥ 30% and < 40%; 3: ≥ 40%

In [3]: df
Out[3]:
                                    compound  class_name
 0       C=CCc1cccc(/C=N/c2nc3ccccc3n2CC)c1O           1
 1  CC1=C(C(=O)Nc2ccc(Cl)cc2)C(c2ccncc2)C(C#N)=C(SCC(N)=O)N1 (centres undefined)           2
 2  COc1ccc(C2SCC(=O)N2CCCN(C)C)cc1 (centres undefined)           2
 3  CC1CCCN(CCOCCOc2ccc(Br)cc2Cl)C1 (centres undefined)           3
 4     CCCCOc1ccc(CSC2=NCCN2)cc1[N+](=O)[O-]           3
 5  CC1=CC(C)(C)Nc2ccc(OC(=O)C(C)N3C(=O)c4ccccc4C3=O)cc21 (centres undefined)           2
 6             CC(C)Oc1ccc(Cc2cnc(N)nc2N)cc1           1
 7  Cc1ccccc1OCC(=O)Nc1cccc(N(C)S(C)(=O)=O)c1           1
 8  CN(C)c1ccc(N2C(=O)CC(Sc3ccccc3C(=O)O)C2=O)cc1 (centres undefined)           1
 9                Cc1ccc(Oc2ccccc2/C=N/O)cc1           3
10  COC(=O)c1cccc(NC(=O)/C=C/c2ccc3c(c2)OCO3)c1           3
11  COc1ccc(C(=O)Cn2c(C(=O)/C=C/c3ccccc3)nc3ccccc32)cc1           1
12      Cc1ccccc1N=C/C=C1\N(C)c2ccccc2C1(C)C           2
13           CCCCCCOc1ccc(OC(=O)c2ccncc2)cc1           1
14       O=C(NCc1ccc(F)cc1)c1cc(-c2ccco2)on1           2
15  CCN(CC)S(=O)(=O)c1cccc(C(=O)N[C@H](C(=O)O)C(C)C)c1           2
16      CC/C(=N\NC(=O)c1ccccc1Cl)c1ccc(Br)s1           2
17  CC1CCCN(CCCOc2ccc(Cl)cc2Br)C1 (centres undefined)           3
18  Cc1ccc(N2C(=N)/C(=C3/Nc4ccccc4S3)C(c3ccccc3)C2=O)cc1 (centres undefined)           2
19            COc1ccc(Cc2nnc(SC)[nH]c2=O)cc1           1

Sourced from PubChem BioAssay AID488841
